- experimental_target: T1, biotinylated Human Activin A (human, UniProt P03970 309-424 (pig entry), biotinylated (EZ-Link Sulfo-NHS-Biotinylation Kit))
- T1 sequence: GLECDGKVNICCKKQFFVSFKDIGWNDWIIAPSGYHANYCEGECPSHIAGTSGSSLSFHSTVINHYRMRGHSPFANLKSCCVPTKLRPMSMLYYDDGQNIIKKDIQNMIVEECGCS
- protocol_description: SPR (Biacore 8K), antigen captured, Fab analyte
Parameter kon: see the listing below.

binder="Fab of anti-Activin A antibody Clone K (Fab, V domains shown, Fab format; only VH and VL are tied to the clone; also called Clone K Fab) VH: QVQLVQSGAEVKKPGSSVKVSCKASGGTSSSYAISWVRQAPGQGLEWMGYIIPAFGTANYAQKFQGRVTITADESTSTAYMELSSLRSEDTAVYYCARPVRTYPLGKYFYHWGQGTLVTVSS VL: EIVLTQSPATLSLSPGERATLSCRASQSVSSYLAWYQQKPGQAPRLLIYDASNRATGIPARFSGSGSGTDFTLTISSLEPEDFAVYYCQQDSIFPPYTFGGGTKVEIK" property_label=kon readout_value="3.25e+06 M⁻¹ s⁻¹"
binder="Fab of anti-Activin A antibody Clone F (Fab, V domains shown, Fab format; only VH and VL are tied to the clone; also called Clone F Fab) VH: QVQLVQSGAEVKKPGASVKVSCKASGYTFTGYHIHWVRQVPGQGLEWMGVISAYSGDTNYAQKLQGRVTMTTDTSTSTAYMELRSLRSDDTAVYYCARARDIAALGLGAFDYWGQGTLVTVSS VL: EIVLTQSPATLSVSPGERATLSCRASQSVSSNLAWYQQKPGQAPRLLIYGASDRATGIPARFSGSGSGTEFTLTISSLQSEDFAVYYCIQYSNYPRTFGGGTKVEIK" property_label=kon readout_value="1.68e+06 M⁻¹ s⁻¹"

IN: For the binder shown here, Fab of anti-Activin A antibody Clone G (Fab, V domains shown, Fab format; only VH and VL are tied to the clone; also called Clone G Fab) VH: QVQLVQSGAEVKKPGASVKVSCKASGYTFTSYYIHWVRQAPGQGLEWMGAIYAYSGDTNYAQKLQGRVTMTTDTSTSTAYMELRSLRSDDTAVYYCARARDIAAAGLGAFDYWGQGTLVTVSS VL: EIVLTQSPGTLSLSPGERATLSCRASQSVRSSYLAWYQQKPGQAPRLLIYGASSRATGIPDRFSGSGSGTDFTLTISRLEPEDFAVYYCQQYSNYPRTFGGGTKVEIK , give the reported kon.
OUT: 1.46e+06 M⁻¹ s⁻¹
